Target: T1, full length GST-tagged CARM1 (UniProt Q9WVG6 1-608)
T1 sequence (looked up): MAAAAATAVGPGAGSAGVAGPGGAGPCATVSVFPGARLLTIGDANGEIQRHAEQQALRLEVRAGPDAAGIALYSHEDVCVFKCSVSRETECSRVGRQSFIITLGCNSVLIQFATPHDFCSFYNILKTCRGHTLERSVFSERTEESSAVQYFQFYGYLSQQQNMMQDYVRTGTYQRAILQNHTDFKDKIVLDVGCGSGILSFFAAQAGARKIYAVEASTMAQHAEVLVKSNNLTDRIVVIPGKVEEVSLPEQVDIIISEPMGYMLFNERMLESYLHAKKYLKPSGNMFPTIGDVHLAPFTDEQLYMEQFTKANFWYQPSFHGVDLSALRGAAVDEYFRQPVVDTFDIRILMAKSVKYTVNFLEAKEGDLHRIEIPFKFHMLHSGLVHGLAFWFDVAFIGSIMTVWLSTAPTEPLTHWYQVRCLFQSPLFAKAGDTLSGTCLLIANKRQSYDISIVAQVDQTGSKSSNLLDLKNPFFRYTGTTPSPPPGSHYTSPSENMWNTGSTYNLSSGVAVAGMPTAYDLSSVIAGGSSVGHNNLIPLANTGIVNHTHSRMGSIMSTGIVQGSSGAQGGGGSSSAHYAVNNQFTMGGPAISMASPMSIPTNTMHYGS
Test: SPR
Property: pKd
Please note pKd is a logarithmic value: minus log10 of concentration in mol/L. Answer with that number alone.

Problem: # return recorded pKd for entry PABP1(437–488) (domain or fragment, human, UniProt P11940 437-488, looked up) WTAQGARPHPFQNMPGAIRPAAPRPPFSTMRPASSQVPRVMSTQRVANTSTQ
Result: 6.80
